Sourced from the Immune Epitope Database (IEDB)

Target System: HLA-A*31:01
Test Protocol: IEDB peptide-MHC binding, purified MHC/direct/fluorescence; filed as Kd, often an IC50 or EC50 that approximates it; bounds were set here for any values at or beyond the usual limits of such assays
Reported Conditions: source organism: Escherichia coli
pKd: −log10 of the molar value.
Endpoint Name: pKd

Look up pKd for this sequence: `RRRIGEIFK`
≤ 4.70

----------
Target System: HLA-A*03:01
Test Protocol: IEDB peptide-MHC binding, purified MHC/competitive/fluorescence; filed as Kd, often an IC50 or EC50 that approximates it; bounds were set here for any values at or beyond the usual limits of such assays
Reported Conditions: source organism: Burkholderia pseudomallei 668
Endpoint Name: Kd

Look up Kd for this sequence: `ILFDRLPIA`
≥ 20 µM
